# ASSAY_NAME: AUC (0 to infinity) in Sprague-Dawley rat at 10 mg/kg administered orally measured up to 24 hrs by LC-MS/MS analysis
# Format: ADME, organism-based
# Design: dose 10 mg/kg, route oral, time infinity
# CONDITION_NOTES: in vivo, po
Listed molecules paired with reported AUC(0-inf)
Record the result as number plus unit.

>  <MOLECULE>
[2H]C([2H])([2H])NC(=O)c1ccc(N2C(=S)N(c3cnc(C#N)c(C(F)(F)F)c3)C(=O)C23CCC3)cc1F

>  <AUC(0-inf)>
28700 ng·h/mL

$$$$

// next item, AUC(0-inf) requested
Query: AUC(0-inf) lookup needed for CNC(=O)c1ccc(N2C(=S)N(c3cnc(C#N)c(C(F)(F)F)c3)C(=O)C23CCC3)cc1F [APALUTAMIDE] , thanks.
Result: 14800 ng·h/mL

----------
# ASSAY_NAME: Tmax in Balb/c mouse at 10 mg/kg administered orally measured up to 24 hrs by LC-MS/MS analysis
# Assay type: ADME, organism-based
# CONDITION_NOTES: in vivo, po
ENDPOINT_LABEL: Tmax (h)
Write down the numeric answer in h and omit the unit.

Reference set, count: 4
>  <MOLECULE>
CNC(=O)c1ccc(N2C(=S)N(c3cnc(C#N)c(C(F)(F)F)c3)C(=O)C23CCC3)cc1F [APALUTAMIDE]

>  <ENDPOINT_LABEL>
Tmax

>  <UNIT_ANNOTATION>
h

>  <RESULT>
6

$$$$
>  <MOLECULE>
[2H]C([2H])([2H])NC(=O)c1ccc(N2C(=S)N(c3cnc(C#N)c(C(F)(F)F)c3)C(=O)C23CCC3)cc1F

>  <ENDPOINT_LABEL>
Tmax

>  <UNIT_ANNOTATION>
h

>  <RESULT>
4

$$$$
>  <MOLECULE>
[2H]c1cc(C(=O)NC)c(F)c([2H])c1N1C(=S)N(c2cnc(C#N)c(C(F)(F)F)c2)C(=O)C12CCC2

>  <ENDPOINT_LABEL>
Tmax

>  <UNIT_ANNOTATION>
h

>  <RESULT>
6

$$$$
>  <MOLECULE>
[2H]c1cc(C(=O)NC([2H])([2H])[2H])c(F)c([2H])c1N1C(=S)N(c2cnc(C#N)c(C(F)(F)F)c2)C(=O)C12CCC2

>  <ENDPOINT_LABEL>
Tmax

>  <UNIT_ANNOTATION>
h

>  <RESULT>
4

$$$$

Query: Tmax lookup needed for [2H]C1([2H])CC([2H])([2H])C12C(=O)N(c1cnc(C#N)c(C(F)(F)F)c1)C(=S)N2c1ccc(C(=O)NC)c(F)c1 , thanks.
Result: 6

These entries and their values trace back to ChEMBL document CHEMBL4020755.
